- Test system: KM12 colon
- Protocol details: NCI tumour cell line growth inhibition, 48 h
Endpoint: TGI

Take a look at these entries with their results.
Compound: O=C(O)CCCc1cc2c(s1)-c1cccc3cccc-2c13
TGI: 42.3 µM
--
Compound: COc1ccc(C=NCCCN=Cc2ccc(OC)cc2O)c(O)c1
TGI: > 100 µM
--
Compound: COc1ccc(Nc2ncccc2C(=O)NCc2cn(Cc3cccc(Oc4ccccc4)c3)nn2)c(OC)c1
TGI: > 100 µM
--
Compound: COc1cc(C2c3cc4c(cc3OC(NNc3ccccc3)C2C)OCO4)cc(OC)c1O (stereo unspecified)
TGI: 12 µM
--
Compound: COc1cccc(/C=N/NC(=O)CN(C)C)c1O
TGI: > 100 µM

Let us move to another entry and its TGI.
The recorded TGI for entry COc1ccc2c(c1)CC1N(C)CCC13CCCCC23 (stereo unspecified) equals > 100 µM

====

- System: SK-MEL-2 melanoma
- Protocol details: NCI tumour cell line growth inhibition, 48 h
Endpoint: TGI

Molecule: C1=CC(=NN=P(c2ccccc2)(c2ccccc2)c2ccccc2)C=C1
Assayed system: SK-MEL-2 melanoma
TGI: > 100 µM
//
Molecule: Cc1nc(-n2nc(-c3ccccc3)cc2-c2ccccc2)sc1C(/C=C/c1ccc([N+](=O)[O-])cc1)=N/NC(N)=S
Assayed system: SK-MEL-2 melanoma
TGI: > 100 µM
//
Molecule: CC(C)OC(=O)c1cccnc1/C=N/O
Assayed system: SK-MEL-2 melanoma
TGI: > 100 µM

Let us move to another entry and its TGI.
The recorded TGI for entry CCCCCCn1c2c(c3c(O)cccc31)C(=O)c1ccccc1-2 equals 37.9 µM

====

- Test system: A498 renal
- Protocol details: NCI tumour cell line growth inhibition, 48 h
Endpoint: TGI

Smiles input: O=[N+]([O-])c1ccc2c(N=Nc3ccc4ccccc4c3O)c(O)cc(S(=O)(=O)O)c2c1
TGI: > 100 µM
//
Smiles input: C/C(CC(=O)Nc1ccc([N+](=O)[O-])cc1)=N\Nc1ccc([N+](=O)[O-])cc1[N+](=O)[O-]
TGI: > 100 µM
//
Smiles input: O=C1c2c(F)c(F)c(F)c(F)c2SC2=Nc3cccc4cccc(c34)N12
TGI: 35.2 µM
//
Smiles input: C1C[S][Ge]2([S]CCS1)[S]CCSCC[S]2
TGI: > 100 µM

Let us move to another entry and its TGI.
The recorded TGI for entry O=C(Nc1nc(-c2ccccc2Cl)cs1)c1cc(-c2ccc(Cl)cc2)nc2ccc(Cl)cc12 equals > 100 µM

====

// TGI lookup, one value per entry
- System: SNB-19 CNS
- Protocol details: NCI tumour cell line growth inhibition, 48 h

Compound: O=C(c1cccnc1)N1N=C(c2ccc3c(c2)OCO3)CC1(O)c1cc(F)c(Cl)cc1Cl (stereo unspecified)
Reading: > 100 µM
//
Compound: Cc1ccc(Cc2n[nH]c(=O)n2N2C(=O)c3ccccc3C2=O)cc1
Reading: > 100 µM
//
Compound: CN(C)C1(c2cc3ccccc3s2)CCCCC1
Reading: > 100 µM
//
Compound: C=C(C)[C@@H]1CC[C@]2(C(=O)N3CCN(C)CC3)CC[C@]3(C)[C@H](CC[C@@H]4[C@@]5(C)CC[C@H](O)C(C)(C)[C@@H]5CC[C@]43C)[C@@H]12
Reading: 3.92 µM
//
Compound: CCOC(=O)[C@H](CO)Nc1c(O)c2c(c(O)c1Cl)C(=O)C=CC2=O
Reading: > 10 µM

Let us move to another entry and its TGI.
I looked up CCOC(=O)Cn1c(=O)[nH]c(=O)c2[nH]cnc21 and its TGI for SNB-19 CNS was > 100 µM

The measurements presented in this section are drawn from PubChem BioAssay (NCI).
